- subjectOfTest: Dual specificity tyrosine-phosphorylation-regulated kinase 1A (Homo sapiens, UniProt Q13627)
measurementType: IC50 (µM)
One number for each entry, in µM.

IC50 for O=C(O[C@@H]1Cc2c(O)cc(O)cc2O[C@@H]1c1cc(O)c(O)c(O)c1)c1cc(O)c(O)c(O)c1 [EPIGALOCATECHIN GALLATE] ? 13.4

The reported measurements were obtained from ChEMBL document CHEMBL1932955.
